Tested on: ATP;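 note: ATP exposure 15 min at 22 °C before imaging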
Assay details: switch fluorescence ratio, 500 uM ATP over buffer (Cy3 cluster intensity, sum of 5 cycles each) (fold (ratio)); higher = stronger signal-on switching upon ATP binding; sequences stand for … in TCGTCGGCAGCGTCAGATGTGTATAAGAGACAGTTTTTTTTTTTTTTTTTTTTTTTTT…TC
Conditions used: aptamer strand: ATP DNA aptamer (quencher-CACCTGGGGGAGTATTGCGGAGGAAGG + anchor), 100 nM annealed; ATP concentration: 500 uM
Value type: switch fluorescence ratio

Query block: Find the recorded switch fluorescence ratio belonging to CAGTATGGGA and report it.
Result block: 0.999

Query block: Find the recorded switch fluorescence ratio belonging to CCTCATGACA and report it.
Result block: 1.26

Query block: Find the recorded switch fluorescence ratio belonging to GGGGCGGCCT and report it.
Result block: 0.979

Query block: Find the recorded switch fluorescence ratio belonging to TCGTAAACGG and report it.
Result block: 1.01

Please report switch fluorescence ratio for every entry that follows.
1. ATTGAGGCTC
2. GTTATATGTT
3. GTAGGTTATG
4. GGGAAAGAGC
5. TAGTTTTATG

Result block:
1: 0.985; 2: 1; 3: 1.01; 4: 1.15; 5: 0.959

---

Test system: ATP;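 note: ATP exposure 15 min at 22 °C before imaging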
Assay details: switch fluorescence ratio, 500 uM ATP over buffer (Cy3 cluster intensity, sum of 5 cycles each) (fold (ratio)); higher = stronger signal-on switching upon ATP binding; sequences stand for … in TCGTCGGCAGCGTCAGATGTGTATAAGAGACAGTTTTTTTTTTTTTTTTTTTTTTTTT…TC
Conditions used: aptamer strand: ATP DNA aptamer (quencher-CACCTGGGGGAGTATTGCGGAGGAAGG + anchor), 100 nM annealed; ATP concentration: 500 uM
For each record, write down the corresponding switch fluorescence ratio.

Query block: Return switch fluorescence ratio measured with ATP given this sequence: CTGATGTTTT
Result block: 0.975

Please report switch fluorescence ratio for every entry that follows.
1. CATATAAGTA
2. TATGTTTTCT
3. GGCTCACGGT

Result block:
0.981
1.01
0.98

Please report switch fluorescence ratio for every entry that follows.
1. TTCAGCGTCT
2. AATTGCGGGA

Result block:
1. 0.975
2. 0.989

---

System: ATP;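 note: ATP exposure 15 min at 22 °C before imaging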
Assay details: switch fluorescence ratio, 500 uM ATP over buffer (Cy3 cluster intensity, sum of 5 cycles each) (fold (ratio)); higher = stronger signal-on switching upon ATP binding; sequences stand for … in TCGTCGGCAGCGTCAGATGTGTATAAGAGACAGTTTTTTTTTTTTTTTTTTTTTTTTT…TC
Conditions used: aptamer strand: ATP DNA aptamer (quencher-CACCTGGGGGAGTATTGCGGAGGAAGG + anchor), 100 nM annealed; ATP concentration: 500 uM
For each record, write down the corresponding switch fluorescence ratio.
Give bare numbers.

Example entries begin here.
Query block: Find the recorded switch fluorescence ratio belonging to GAAACTGGAA and report it.
Result block: 0.997

Query block: Find the recorded switch fluorescence ratio belonging to CATAGTATTA and report it.
Result block: 0.958

Query block: Find the recorded switch fluorescence ratio belonging to TGCGGGTTAG and report it.
Result block: 0.984

Query block: Find the recorded switch fluorescence ratio belonging to TACGCATAAT and report it.
Result block: 1.37

Query block: Find the recorded switch fluorescence ratio belonging to GCCGGTGTTT and report it.
Result block: 1.02

Please report switch fluorescence ratio for every entry that follows.
1. CTGACCGGTC
2. TTTAGGATTG

Result block:
[1.02, 0.98]

Please report switch fluorescence ratio for every entry that follows.
1. TCGTGGGGGG
2. GGGTAGTCGG
3. AGGCTGGGGT
4. TCGGGGCAGT
5. AGGAAGAGAG
6. CAAGGGGCAA

Result block:
1: 0.991; 2: 0.993; 3: 1.02; 4: 2.01; 5: 1.02; 6: 0.964

Please report switch fluorescence ratio for every entry that follows.
1. CCCACCGTTG
2. GAAATTTGGA
3. AAGGCTTCTT
4. TGAAAAAAGA
5. GGAGGGGCAC
6. GATCTCAGGG
7. GGTAGAAAGG

Result block:
1.17
0.991
1
0.988
0.979
1
1.03

---

Test system: ATP;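 note: ATP exposure 15 min at 22 °C before imaging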
Assay details: switch fluorescence ratio, 500 uM ATP over buffer (Cy3 cluster intensity, sum of 5 cycles each) (fold (ratio)); higher = stronger signal-on switching upon ATP binding; sequences stand for … in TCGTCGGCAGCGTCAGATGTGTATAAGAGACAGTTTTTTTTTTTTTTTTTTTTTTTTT…TC
Conditions used: aptamer strand: ATP DNA aptamer (quencher-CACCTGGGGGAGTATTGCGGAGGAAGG + anchor), 100 nM annealed; ATP concentration: 500 uM
For each record, write down the corresponding switch fluorescence ratio.
One number for each entry.

Example entries begin here.
Query block: Find the recorded switch fluorescence ratio belonging to GAATTCGGAA and report it.
Result block: 1.05

Query block: Find the recorded switch fluorescence ratio belonging to GGGGGCGCCG and report it.
Result block: 1.01

Query block: Find the recorded switch fluorescence ratio belonging to TTGGGTAGGA and report it.
Result block: 1.03

Query block: Find the recorded switch fluorescence ratio belonging to CAAGGGGTCC and report it.
Result block: 1.01

Query block: Find the recorded switch fluorescence ratio belonging to TGAGGTTAGT and report it.
Result block: 1.09

Please report switch fluorescence ratio for every entry that follows.
1. TTGTAATTAA
2. GGTCGGGACG
3. GGTAGTATTT
4. TGGATAGGTA
5. TTTACCTAGA
6. CACGTGTTGC
7. TAATTTAAAG
8. ATACGGCCCC

Result block:
1. 0.996
2. 0.959
3. 0.996
4. 0.995
5. 0.997
6. 1.04
7. 1
8. 1.2

Please report switch fluorescence ratio for every entry that follows.
1. ATCGGTCTTT
2. GGATCATGTG
3. CGGTTTGACA
4. AGTATGAGTC
5. ACACTATTAT
6. AACGGTTTTT
7. GGGGAAGGTA

Result block:
0.997
1
0.995
1.06
1.07
0.972
0.978

---

For each record, write down the corresponding switch fluorescence ratio.
System: ATP;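 note: ATP exposure 15 min at 22 °C before imaging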
Assay details: switch fluorescence ratio, 500 uM ATP over buffer (Cy3 cluster intensity, sum of 5 cycles each) (fold (ratio)); higher = stronger signal-on switching upon ATP binding; sequences stand for … in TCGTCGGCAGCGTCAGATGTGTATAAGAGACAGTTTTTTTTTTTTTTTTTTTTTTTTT…TC
Conditions used: aptamer strand: ATP DNA aptamer (quencher-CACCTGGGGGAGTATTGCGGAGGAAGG + anchor), 100 nM annealed; ATP concentration: 500 uM

Query block: Find the recorded switch fluorescence ratio belonging to GGCCGAGGGG and report it.
Result block: 1.01

Query block: Find the recorded switch fluorescence ratio belonging to CCAGGTTTGT and report it.
Result block: 1.17

Query block: Find the recorded switch fluorescence ratio belonging to TTACGGGGGA and report it.
Result block: 1.03

Please report switch fluorescence ratio for every entry that follows.
1. ACGGGGGGAA
2. GTTGAATTAT
3. TGCTTCATGT
4. ATTTCACTTT
5. CTGATTACGC
6. TACGGGTGGG
7. CCTGTCATCC
8. CTCACGACGT

Result block:
1: 1.02; 2: 0.987; 3: 0.985; 4: 0.991; 5: 1.37; 6: 1.17; 7: 1.17; 8: 1.07

Please report switch fluorescence ratio for every entry that follows.
1. AGGAATTTTC
2. AAATTACTAG
3. ATTCCAAGTG
4. TAAAGGACTT
5. TTCATCCAGC

Result block:
0.994
1.01
1.03
1.05
1.13

Please report switch fluorescence ratio for every entry that follows.
1. GTGCTTTTTT
2. ATGGGGAAAT
3. ATGGTATTTG
4. ATTTATATCT
5. GAACTAAGGA
6. AGACATAGAG
7. CCCGACTTTA

Result block:
1: 0.993; 2: 0.984; 3: 0.998; 4: 1; 5: 0.989; 6: 1; 7: 1.04

Please report switch fluorescence ratio for every entry that follows.
1. CCGAGCTTGA
2. AGGGCCGTTG
3. ATGGTTTCTT
4. GGGTATGTA

Result block:
1: 1.61; 2: 0.996; 3: 1; 4: 1.01

Please report switch fluorescence ratio for every entry that follows.
1. TTACGTGGTT
2. AAAGTGGTTG
3. CGTGTTTGCG
4. TTTGGTTGT

Result block:
1. 1.07
2. 0.984
3. 0.985
4. 0.972

Please report switch fluorescence ratio for every entry that follows.
1. CCGTCGATGG
2. ACCCGAAGGC
3. CAAGGTAAGT
4. AGGCGTATAC

Result block:
[1.1, 1.08, 1.03, 1.79]

Please report switch fluorescence ratio for every entry that follows.
1. TTCTCTAGAT
2. AACCTGCTCG

Result block:
1: 1.06; 2: 1.1

Where these numbers come from: the supplement of paper PMC10126150
